Origin of values: patent US20090163476A1

# IC50 measurements, system: SIRT1 (Homo sapiens)

O=C(Nc1cccc(-c2nc3ncccc3o2)c1)c1ccc(N2CCCC2)cc1 [Compound 47] | 51 to 100 µM

# evaluate next
Lookup: # query: IC50 | item CC(=O)Oc1ccc(C(=O)Nc2ccc(C(=O)O)cc2NC(=O)c2ccc(OC(C)=O)cc2)cc1 [Compound 14] | system: SIRT1 (Homo sapiens)
Found: 51 to 100 µM

====

Biological target: SIRT1 (Homo sapiens, UniProt Q96EB6)
Sequence (Q96EB6 1-747): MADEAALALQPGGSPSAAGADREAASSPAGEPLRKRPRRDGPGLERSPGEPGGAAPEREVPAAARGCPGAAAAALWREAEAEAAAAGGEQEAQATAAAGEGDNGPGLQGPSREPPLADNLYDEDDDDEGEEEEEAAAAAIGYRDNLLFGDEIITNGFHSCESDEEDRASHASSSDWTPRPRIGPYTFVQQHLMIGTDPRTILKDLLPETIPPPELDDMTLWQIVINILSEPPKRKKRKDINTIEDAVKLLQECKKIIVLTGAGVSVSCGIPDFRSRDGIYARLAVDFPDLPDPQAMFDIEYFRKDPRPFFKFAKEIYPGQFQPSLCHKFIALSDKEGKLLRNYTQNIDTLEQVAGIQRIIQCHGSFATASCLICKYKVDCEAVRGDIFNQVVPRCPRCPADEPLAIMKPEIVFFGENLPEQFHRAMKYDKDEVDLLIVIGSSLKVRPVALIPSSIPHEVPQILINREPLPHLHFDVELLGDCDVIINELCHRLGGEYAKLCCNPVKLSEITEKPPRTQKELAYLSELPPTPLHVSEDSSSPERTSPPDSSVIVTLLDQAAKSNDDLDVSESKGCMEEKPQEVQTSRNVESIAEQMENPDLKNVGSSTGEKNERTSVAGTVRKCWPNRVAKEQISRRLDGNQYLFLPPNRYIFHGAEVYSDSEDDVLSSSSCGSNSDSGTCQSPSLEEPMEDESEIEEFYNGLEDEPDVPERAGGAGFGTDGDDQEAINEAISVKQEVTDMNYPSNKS
Assay: Fluorescence polarization assay of SIRT1 activity (p53-based peptide substrate)
Format: biochemical
Conditions: activation of SIRT1; peptide 1 for Compounds 1-18, peptide 2 for Compounds 19-164; read-out: ED50 FP
pEC50: −log10 of the molar value.
RESULT TYPE: pEC50

Here's what some known entries look like.
N#Cc1ccc(C(=O)Nc2cccc(-c3nc4ncccc4o3)c2)cc1 [Compound 45] | < 3.82
CC1COCC(C)N1c1ccc(C(=O)NCc2cccc(CN)c2)cc1NC(=O)c1ccc2ccccc2c1 (stereo not drawn) [Compound 9] | 3.82 to 4.00
O=C(Nc1cccc(-c2nc3ncccc3o2)c1)c1ccc(N2CCCCC2)cc1 [Compound 39] | < 3.82

Lookup: Short answer please: pEC50, SIRT1 (Homo sapiens, UniProt Q96EB6), entry COc1cccc(C(=O)Nc2cccc(-c3nc4ncccc4o3)c2)c1C [Compound 49]
Found: < 3.82

Lookup: What is its pEC50 for SIRT1 (Homo sapiens, UniProt Q96EB6)? Entry: O=C(Nc1cccc(-c2nc3ncccc3o2)c1)c1ccc(N2CCOCC2)cc1 [Compound 38]
Found: < 3.82

Lookup: Request: pEC50, test system SIRT1 (Homo sapiens, UniProt Q96EB6), entry CCOc1cccc(C(=O)Nc2cc(OC)c(OC)cc2C(=O)O)c1 [Compound 8]
Found: 4.00 to 4.29

Lookup: Provide the documented pEC50 with SIRT1 (Homo sapiens, UniProt Q96EB6) as the system for COc1ccc(C(=O)Nc2cccc(-c3nc4ncccc4o3)c2)cc1C(F)(F)F [Compound 41]
Found: < 3.82

Lookup: For the record CC(=O)Oc1cc(C(=O)Nc2ccccc2C(=O)O)cc(C(=O)Nc2ccccc2C(=O)O)c1 [Compound 1] , what value of pEC50 is listed for SIRT1 (Homo sapiens, UniProt Q96EB6)?
Found: > 4.30
